The reported measurements were obtained from ChEMBL document CHEMBL1201862.

- System: SF-268
- test.summary: NCI tumour cell line growth inhibition, 48 h
Calls of active or inactive are those of the source. No stated cut-off is given here; in the data, active = GI50 up to about 1.1 µM and inactive = higher.

- compound: "CC(C)OP(=O)(OC(C)C)/C(=N/Nc1ccc([N+](=O)[O-])cc1)NN"
  GI50: "> 100 µM (inactive)"
- compound: "c1ccc(NNN2NC(c3ccccc3)C2c2ccccc2)cc1 (stereo unspecified)"
  GI50: "> 100 µM (inactive)"
- compound: "CC(C)OP(=O)(OC(C)C)C1=NN(c2ccc([N+](=O)[O-])cc2)C(P(=O)(OC(C)C)OC(C)C)=NN1c1ccc([N+](=O)[O-])cc1"
  GI50: "> 100 µM (inactive)"
- compound: "O=C1c2ccccc2C2(c3ccc(Cl)cc3)NCc3ccccc3CN12 (stereo unspecified)"
  GI50: "35.1 µM (inactive)"
- compound: "COC(=O)Cc1c(-c2[nH]c3ccccc3c2CC(=O)OC)[nH]c2ccccc12"
  GI50: "20.4 µM (inactive)"
- compound: "NCCCCN(CCCN)Cc1ccc2ccccc2c1"
  GI50: "12.6 µM (inactive)"
